tested on: MS2 coat protein; experiment: apparent KD of MS2 coat protein; designed switch direction (-1 OFF switch, 1 ON switch): 1; higher = weaker reporter binding; details: Eterna round: R98; input ligand: none
# apparent KD of MS2 coat protein values compiled below
Quick note: give the figure in nM, leave out the unit.

Look over these answered cases.
UUGACGUCGGAUACAUGAGGAUCACCCAUGUGCCCGCGGGCACAGGAUAUCGAACAUAGUAUUGACGAGAAGGGUGACAGAGAG [Anxeenerce]; 404
CAAUUAUGGUGAGGAUAUGCACAGGAUCACCGUGUAGAAGGCAUCAGGUAGAAGGUGCAGAGGAUCACCCUGUAAGGAUAUAUC [pwkr2 ssNG1 DX.17]; 666

Next sequence, please.
INPUT: Please report the measured apparent KD of MS2 coat protein for GCCAUCGCAUGAGGAUAUGGCACCGUUUCGGUGCCAGAAGGCAUGUCUCUAGACAUGAGGAUCACCCAUGUAGUUAAGAUGGCA [Pyrimidine booster 2] tested on MS2 coat protein.
OUTPUT: 589

====

system: MS2 coat protein; experiment: apparent KD of MS2 coat protein; designed switch direction (-1 OFF switch, 1 ON switch): 1; higher = weaker reporter binding; conditions: input ligand: microRNA oligo, concentration not stated
MEASURED_PROPERTY: apparent KD of MS2 coat protein
Mention the unit after the number when you answer.

GGUAGGUUACUACCAAACAACAUGAGGAUCACCCAUGUGUGGAAGGAUAUGGUACCUAUUUGGUACCAGAAGGUCCAAUUAAUU [Fiskers NG3ss - 4] (Eterna round: R96, puzzle: Same State NG 3); 36.4 nM

Please find the next sequence below.
INPUT: Identify the reported apparent KD of MS2 coat protein for the following entry. AACCAGGCCAGAGGAUAUGGGAAAGGAAGUGUACUAGAAGGCUGCAGCCUGAACAAACAUGAGGAUCACCCAUGUAAAACGGUG [PowerStrip SSNG 1.27] (Eterna round: R96, puzzle: Same State NG 1)
OUTPUT: 150 nM

====

tested on: MS2 coat protein; assay: apparent KD of MS2 coat protein; designed switch direction (-1 OFF switch, 1 ON switch): -1; higher = weaker reporter binding; conditions: input ligand: FMN 200 uM
Catalogue of apparent KD of MS2 coat protein values
Kindly provide the numeric value in nM only, without the unit symbol.

Worked set:
GAGCCAUCGUGAGAUGGCUCAAUUACAUGAGGAUCACCCAUGUAGGAUAUCGAUUGCUUUGCAGUCGAGAAGGACAUGUUUAAU [JL ENG3 3.00] (Eterna round: R96, puzzle: Exclusion NG 3); 67.4
AUGAACAAGCUUUUUGCAAACAUGAGGAUCACCCAUGUCUUAUAUCGUACCAUGCUAGGCCCUAGCAUGGUACGAUU [jl sellena mod 2] (Eterna round: R97, puzzle: Sensor, turn-off variant 1); 17.6

Moving on to the next sequence.
INPUT: Indicate the recorded apparent KD of MS2 coat protein value for this sequence: CAAUUCUGAGGAUAUGUGCCUCUGGACAUGAGGAUCACCCAUGUGGAGGCUGUAUGGGAGGCAGAAGGUAGAGAUC [Eternabot (L1) Solution 7] (Eterna round: R97, puzzle: Exclusion 5)
OUTPUT: 16.4

====

tested on: MS2 coat protein; assay: apparent KD of MS2 coat protein; higher = weaker reporter binding; conditions: Eterna round: R107; input ligand: theophylline 20 uM
The class of a record is decided solely by its measured apparent KD of MS2 coat protein; consult lower segment (below 30 nM), middle segment (30 nM to below 80 nM), upper segment (80 nM or more)

Some solved cases for reference:
GUACAUGAGGAUCACCCAUGUAUAGUUGAAGGAGCGACCAGAGGGUCAGGUAGGUCGCAGCACAUGAGGUAAGCCCGUGUAUGCU [#1 Exclusion - Arginine A Attempt #19 (Inspired by Pi)]; middle segment
AGACAUGAGGAUCACCCAUGUAGUACGGAUACCAGAUCCAGAUGUAUCCCUUGGCAGCUGUGGUACAGCGUUGCAUCGCUCCUAG [Exclusion - Theophylline A (Freestyle 19)]; lower segment
AUCACUGUGAAAGAUACCAGCGCCCUACCUAUCUUCUGUUACAUGAGGAUCACCCAUGUUCGCCCUUGGCAGCUUGAGAUGGAUC [theeternabot_exclusion_MS2_Theo_B_11]; middle segment

INPUT: Form: Item = ACAUGAGGAUCACCCAUGUCAGGGCACGAUACCAGCUGAUCCGAUGGCCCUUGGCAGCGUGACGUGUGGUCAUGAGGAUCACCCG [kvfmullin] ; Class = ?
OUTPUT: upper segment

INPUT: Which apparent KD of MS2 coat protein category applies to ACUAGUUGUGCAGAUACCAGACAUGAGGAUCACCCAUGUUUGGGAUGUUCGCAUCUUCCUGUCCCUUGGCAGCUGUACAUCUAGA [Omei Theo B Exc v4] here?
OUTPUT: upper segment

INPUT: Tag the class for AUGCAUAUCAGAAGGAGCGUCAUUAACAUGAGGAUCACCCAUGUAACAUUGAAUUCGAUGAGACAGGUAGGUCGCUGAAUAGUAA [SS-ArgB26]
OUTPUT: middle segment
